# Read-out: Signal transducer and activator of transcription 3 (Homo sapiens)
# measurement notes: LTEA_HepaRG_STAT3: Life Technologies and Expression Analysis (LTEA) Assay for Signal transducer and activator of transcription (STAT3) using HepaRG (AID 2283529)
# experimental conditions: mRNA level, 48 h; actives raise or lower the signal
Activity calls are given as the source filed them. How the source made its calls: active means hit-call score of the fitted dose curve at least 0.9, where 1 is the maximum; inactive means score below 0.9.
Reply using exactly one outcome from TRUE for active, FALSE for inactive

CC(=O)OCC(COC(C)=O)OC(C)=O; FALSE
Cc1cn([C@H]2C=C[C@@H](CO)O2)c(=O)[nH]c1=O; FALSE
Cc1ccc(C(C)(C)C)c(O)c1; FALSE
NC1CCCCC1; FALSE

Short answer needed: outcome of this test for O=Cc1ccccc1C=O ?
FALSE

// next record COc1ccc(C(=O)Nc2nc3ccccc3c(NCc3ccccc3)c2C#N)cc1
FALSE

----------
# measurement notes: ATG_SREBP_CIS: Attagene CIS-FACTORIAL HepG2 Assay for human Sterol Regulatory Element Binding (SREBP) (AID 2282962)
# experimental conditions: HepG2 Attagene cis-factorial SREBP reporter, mRNA; actives raise or lower the signal
Calls of active or inactive are those of the source. How the source made its calls: active means hit-call score of the fitted dose curve at least 0.9, where 1 is the maximum; inactive means score below 0.9.
Reply using exactly one outcome from active, inactive

The examples below pair each entry with its known result.
CC(C)c1cccc(C(C)C)c1NC(=O)NS(=O)(=O)c1cc(C(C)(C)O)co1; inactive
CN(C)CCCN1c2ccccc2Sc2ccc(Cl)cc21; active
CCCCC(CC)COP(=O)(OCC(CC)CCCC)OCC(CC)CCCC (stereo not given); inactive

Short answer needed: outcome of this test for O=C(Oc1ccccc1)c1cccc(C(=O)Oc2ccccc2)c1 ?
inactive

// next record O=C(NS(=O)(=O)/C=C/c1cccs1)c1ccc(F)cc1Br
inactive

// next record COC(=O)CCC(=O)OC
inactive

// next record Cc1cc(SC2=C(O)C[C@@](CCc3ccc(N)cc3)(C(C)C)OC2=O)c(C(C)(C)C)cc1CO
inactive

// next record Cc1cc(Cc2ccc(N)c(C)c2)ccc1N
active

// next record CC(=O)O
inactive

----------
# experimental system: Estrogen receptor (Homo sapiens) (UniProt P03372)
# Sequence (P03372 whole entry, looked up): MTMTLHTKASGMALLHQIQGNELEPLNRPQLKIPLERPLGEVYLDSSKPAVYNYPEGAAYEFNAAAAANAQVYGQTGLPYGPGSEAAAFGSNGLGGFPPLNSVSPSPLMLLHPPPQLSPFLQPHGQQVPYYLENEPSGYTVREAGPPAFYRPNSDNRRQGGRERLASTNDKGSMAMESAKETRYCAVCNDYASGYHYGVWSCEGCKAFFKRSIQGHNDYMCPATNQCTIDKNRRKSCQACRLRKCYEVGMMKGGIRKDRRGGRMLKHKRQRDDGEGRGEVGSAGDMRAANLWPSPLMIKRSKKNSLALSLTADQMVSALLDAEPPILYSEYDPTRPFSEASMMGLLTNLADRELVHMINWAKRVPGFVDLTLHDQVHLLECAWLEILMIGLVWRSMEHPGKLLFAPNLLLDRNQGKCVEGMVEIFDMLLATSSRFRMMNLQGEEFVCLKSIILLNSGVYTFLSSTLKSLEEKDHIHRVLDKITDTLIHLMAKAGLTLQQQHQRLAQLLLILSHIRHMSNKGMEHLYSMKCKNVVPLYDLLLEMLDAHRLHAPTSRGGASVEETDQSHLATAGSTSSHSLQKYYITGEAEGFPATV
# measurement notes: ATG_ERa_TRANS: Attagene TRANS-FACTORIAL HepG2 Assay for human Estrogen Receptor alpha (ERa) (AID 2282970)
# experimental conditions: HepG2 Attagene TRANS ERa GAL4 reporter, mRNA
# Description: ATG_TRANS is a cell-based, multiplexed-readout assay that uses HepG2, a human liver cell line, with measurements taken at 24 hours after chemical dosing in a 24-well plate.ATG_ERa_TRANS is one of 30 assay component(s) measured or calculated from the ATG_TRANS assay. […] This assay endpoint, ATG_ERa_TRANS, was analyzed in the positive analysis fitting direction relative to DMSO as the negative control and baseline of activity. […]
Inconclusive results are not listed. Active and inactive are the calls of the source. How the source made its calls: active means hit-call score of the fitted dose curve at least 0.9, where 1 is the maximum; inconclusive means response in the unintended direction; inactive means score below 0.9.
Reply using exactly one outcome from t (active), f (inactive)

The examples below pair each entry with its known result.
Cc1ccc(C(C)(C)C)c(O)c1; t
CCCCCCCCCCCCCCCCO; f
O=C1CCCCC1; f

Short answer needed: outcome of this test for COc1ccc(C(=O)Nc2nc3ccccc3c(NCc3ccccc3)c2C#N)cc1 ?
f

// next record Cc1c(C)c2c(c(C)c1O)CCC(C)(COc1ccc(CC3SC(=O)NC3=O)cc1)O2 (centres undefined)
f

// next record CCC(C)N(C)C(=O)c1cc2ccccc2c(-c2ccccc2Cl)n1 (centres undefined)
f

// next record Nc1nc(=S)c2[nH]cnc2[nH]1
f

// next record CN(C)CCCN(C)CCCN(C)C
f

// next record CS(=O)(=O)c1ccc([C@@H](C[C@H]2CCC(=O)C2)C(=O)Nc2cnccn2)cc1Cl
f

Hey, just so you know, these numbers are from PubChem BioAssay (EPA / NIEHS).
